Ref: ChEMBL document CHEMBL1159189

molecular target: Adenosine receptors; A1 & A2a (Rattus norvegicus) (UniProt P25099+P30543); experiment: Ratio of binding affinities for adenosine receptor A2a and adenosine receptor A1; type: protein assay
PARAMETER MEASURED: Ratio

[[record]]
smiles_notation = "NC(=O)CCSc1nc(N)c2cnn(-c3ccccc3)c2n1"
meas_value = 0.24

[[record]]
smiles_notation = "CCNC(=O)CSc1nc(N)c2cnn(-c3ccccc3)c2n1"
meas_value = 10.8


1 = NC(=O)CSc1nc(N)c2cnn(-c3ccccc3)c2n1
2 = CCNC(=O)CCSc1nc(N)c2cnn(-c3ccccc3)c2n1
Lookup: Quick one: lower Ratio, 1 or 2 ? Please respond with the label that marks your chosen entry.
Found: 1

###

Molecular target: UniProt:P25099
Sequence (P25099 whole entry): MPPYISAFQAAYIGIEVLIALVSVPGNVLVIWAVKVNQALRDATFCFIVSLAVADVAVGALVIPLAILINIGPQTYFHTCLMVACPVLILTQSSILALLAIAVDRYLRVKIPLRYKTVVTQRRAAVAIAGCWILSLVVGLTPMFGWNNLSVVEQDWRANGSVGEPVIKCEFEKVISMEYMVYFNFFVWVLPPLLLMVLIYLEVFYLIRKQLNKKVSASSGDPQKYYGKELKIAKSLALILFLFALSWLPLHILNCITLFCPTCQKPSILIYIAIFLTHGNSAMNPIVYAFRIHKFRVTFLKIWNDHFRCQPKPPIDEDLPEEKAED
Assay: Binding affinity for Adenosine A1 receptor by inhibition of [3H]PIA binding to whole rat brain membranes
PARAMETER MEASURED: Ki (nM)

Some compounds with recorded Ki:
[[record]]
compound = "CCNC(=O)CSc1nc(N)c2cnn(-c3ccccc3)c2n1"
meas_value = 12.1

[[record]]
compound = "CC(Sc1nc(SC(C)C(N)=O)c2cnn(-c3ccccc3)c2n1)C(N)=O (stereo not given)"
meas_value = 229

[[record]]
compound = "NC(=O)CCSc1nc(N)c2cnn(-c3ccccc3)c2n1"
meas_value = 428


a = NC(=O)CSc1nc(N)c2cnn(-c3ccccc3)c2n1
b = CCNC(=O)CCSc1nc(N)c2cnn(-c3ccccc3)c2n1
Lookup: Between a and b , whose recorded Ki is greater? Please respond with the label that marks your chosen entry.
Found: b
(b: 551 nM, a: 28.5 nM)
